Data origin: the supplement of paper PMC6757056

B1: library; a variant is named by its letters at N, in order (parent)
chain: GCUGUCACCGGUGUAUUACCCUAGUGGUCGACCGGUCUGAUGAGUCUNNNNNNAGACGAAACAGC

# Variants of: B1
# method_description: normalized RNA/DNA level without ligand (relative to sTRSVctl = 100) (log10 (% of sTRSVctl)); ligand: hypoxanthine (xanthine aptamer); higher = less ribozyme self-cleavage, higher mRNA level
# settings: HEK293T, reporter: mCherry (pCS4076), ligand present: no
measurement_kind: normalized RNA/DNA level without ligand (log10)
// no unit, no text: just the number

GET /values?readout=normalized RNA/DNA level without ligand (log10)&item= UCGACG 1.7

Recorded normalized RNA/DNA level without ligand (log10) of GCCCUC , please. 1.88

Which normalized RNA/DNA level without ligand (log10) is listed for AACCAA ? 1.78

So what's the measured normalized RNA/DNA level without ligand (log10) for this one? CCUAGC 1.84

// returns reported normalized RNA/DNA level without ligand (log10) for input GUUUUU 1.93

Quick check: normalized RNA/DNA level without ligand (log10) of UCUCGG ? 1.73

Dear colleague, I am looking for the recorded normalized RNA/DNA level without ligand (log10) of the following variant: UAUCGG 1.47

Entry CACAAC has what normalized RNA/DNA level without ligand (log10)? 1.84

May I ask what normalized RNA/DNA level without ligand (log10) has been recorded for UGGGGA ? 1.48

Item CGAGCC has what recorded normalized RNA/DNA level without ligand (log10)? 1.85

Can you look up the measured normalized RNA/DNA level without ligand (log10) of UCCAAG for me? 1.54

Item under review: UGUAGU . Reported normalized RNA/DNA level without ligand (log10)? 1.5

Sample UGGUAA — what was its normalized RNA/DNA level without ligand (log10)? 1.71

Quick one: normalized RNA/DNA level without ligand (log10) of GCCUGA ? 1.81

Name the reported normalized RNA/DNA level without ligand (log10) value associated with the variant AAUAGG 1.28

Param item = UCCGUA ; retrieve measured normalized RNA/DNA level without ligand (log10). 1.74

Tell me the measured normalized RNA/DNA level without ligand (log10) of AAGGAC , please. 1.65

Recorded normalized RNA/DNA level without ligand (log10) for AGAGGA , please? 1.63

Form field: reported normalized RNA/DNA level without ligand (log10) of UCCGAU 1.77

# query: normalized RNA/DNA level without ligand (log10) of entry GAUAGA 1.59

Fill blank: measured normalized RNA/DNA level without ligand (log10) of the variant CGCGCG is ____. 1.78

# get_value(readout='normalized RNA/DNA level without ligand (log10)', item= GUAACA ) 1.84

Which measured normalized RNA/DNA level without ligand (log10) value corresponds to GAUGUG ? 1.31

Looking for the measured normalized RNA/DNA level without ligand (log10) of GCUGGA , can you help? 1.8

State the recorded normalized RNA/DNA level without ligand (log10) for this entry: GCAUCA 1.89

Which measured normalized RNA/DNA level without ligand (log10) value corresponds to AAUAUC ? 1.94

So what does the record say about normalized RNA/DNA level without ligand (log10) for AUAUGG ? 1.37

Field request: normalized RNA/DNA level without ligand (log10) | item: UGCAGA 1.43

Using the record for GAAGCC , report its normalized RNA/DNA level without ligand (log10). 1.85

GET /values?readout=normalized RNA/DNA level without ligand (log10)&item= UUCGCU 1.87

I am curious: what normalized RNA/DNA level without ligand (log10) value has been reported for CUGCAU ? 1.8

Value lookup for normalized RNA/DNA level without ligand (log10); key = GUCGAA 1.69

Looking for the measured normalized RNA/DNA level without ligand (log10) of UUGGUU , can you help? 1.91

Suppose we examine the variant UCCUGU ; what normalized RNA/DNA level without ligand (log10) value has been reported? 1.86

What does the record list as normalized RNA/DNA level without ligand (log10) for UUUAUU ? 1.86

Need normalized RNA/DNA level without ligand (log10), item GAACUG 1.52

Tell me the measured normalized RNA/DNA level without ligand (log10) of UGUUGU , please. 1.74

normalized RNA/DNA level without ligand (log10) lookup needed for UCACUU , thanks. 1.88

Given the entry AGUUAG , report its measured normalized RNA/DNA level without ligand (log10). 1.44

Returns the measured normalized RNA/DNA level without ligand (log10) for the input variant. Input: GCAAUA 1.87

Suppose we examine the variant UGUGCC ; what normalized RNA/DNA level without ligand (log10) value has been reported? 1.95

Reported normalized RNA/DNA level without ligand (log10) for GGUCGG : what is it? 1.65

For UCGGAG , what is its reported normalized RNA/DNA level without ligand (log10)? 1.41

Fill in the blank: the reported normalized RNA/DNA level without ligand (log10) of CAUCUA is ____. 1.85

Query (variant): UAUCUU ; field requested: normalized RNA/DNA level without ligand (log10) 1.9

Tell me the measured normalized RNA/DNA level without ligand (log10) of CCAUGG , please. 1.47

Dear colleague, I am looking for the recorded normalized RNA/DNA level without ligand (log10) of the following variant: CGGACG 1.72

GET /values?readout=normalized RNA/DNA level without ligand (log10)&item= GCCUUC 1.88

Request the reported normalized RNA/DNA level without ligand (log10) associated with AUGCAG 1.29

Data request, read-out normalized RNA/DNA level without ligand (log10), for UAUAAC 1.83

For the variant shown here, AUCGCA , give the reported normalized RNA/DNA level without ligand (log10). 1.77

Suppose we examine the variant CGAUAG ; what normalized RNA/DNA level without ligand (log10) value has been reported? 1.7

Report normalized RNA/DNA level without ligand (log10) for AGGGCC please. 1.98

What does the data say about its normalized RNA/DNA level without ligand (log10)? Entry: GUAUUG 1.45

# get_value(readout='normalized RNA/DNA level without ligand (log10)', item= AAGACU ) 1.86

Record request: normalized RNA/DNA level without ligand (log10) value, item GUGGGG 1.45

Tell me the measured normalized RNA/DNA level without ligand (log10) of CAAGCA , please. 1.7

Look at this variant and give its reported normalized RNA/DNA level without ligand (log10). GUUGAG 1.34

Using the record for UCUUUC , report its normalized RNA/DNA level without ligand (log10). 1.99

Quick one: normalized RNA/DNA level without ligand (log10) of AAGUCA ? 1.63

What does the record list as normalized RNA/DNA level without ligand (log10) for GGUUCU ? 1.9

I am curious: what normalized RNA/DNA level without ligand (log10) value has been reported for CCAGAG ? 1.51

Given the variant AUAGUU , what is its reported normalized RNA/DNA level without ligand (log10)? 1.84

What does the record list as normalized RNA/DNA level without ligand (log10) for GGGCGA ? 1.88

Entry CACAGU has what normalized RNA/DNA level without ligand (log10)? 1.84

Endpoint output: normalized RNA/DNA level without ligand (log10) of CUAUGA . Value? 1.85

Would you kindly share the measured normalized RNA/DNA level without ligand (log10) for AAGAGG ? 1.06

Entry under review: GGCAGG . Reported normalized RNA/DNA level without ligand (log10)? 1.5

Tell me the measured normalized RNA/DNA level without ligand (log10) of ACAAAU , please. 1.65

What value of measured normalized RNA/DNA level without ligand (log10) is listed for GAGGUA ? 1.67

Item AUUAUU has what recorded normalized RNA/DNA level without ligand (log10)? 1.88

I have this variant here, CGACAU , and I need its recorded normalized RNA/DNA level without ligand (log10). 1.74

Need normalized RNA/DNA level without ligand (log10) of CACAGG , thanks. 1.26

# get_value(readout='normalized RNA/DNA level without ligand (log10)', item= GGGGCG ) 1.75

Fill in the blank: the reported normalized RNA/DNA level without ligand (log10) of GGUGAU is ____. 1.76

What measured normalized RNA/DNA level without ligand (log10) goes with GUUCGA ? 1.76

Reported normalized RNA/DNA level without ligand (log10), variant AGGUCC : ____ 1.86

Requested field: normalized RNA/DNA level without ligand (log10). Item: AAAACG 1.43

// query normalized RNA/DNA level without ligand (log10) value for entry AGGGUG 1.54

Fill in the blank: the reported normalized RNA/DNA level without ligand (log10) of CCGGGC is ____. 1.88

Which normalized RNA/DNA level without ligand (log10) value belongs to AAUAAG ? 1.47

Would you mind telling me what normalized RNA/DNA level without ligand (log10) value was observed for GCCUGG ? 1.5

Look up normalized RNA/DNA level without ligand (log10): GGGGCC 1.89

Fill in: normalized RNA/DNA level without ligand (log10) of UGAACG is ___ 1.82

What value of normalized RNA/DNA level without ligand (log10) has been recorded for this entry: UUCUCA 1.92

Return reported normalized RNA/DNA level without ligand (log10); argument: CCGACC 1.85

What value of measured normalized RNA/DNA level without ligand (log10) is listed for UAUAUC ? 1.94

Request the reported normalized RNA/DNA level without ligand (log10) associated with CGGUUU 1.79

If you can, please state the reported normalized RNA/DNA level without ligand (log10) value of GGAGAU . 1.72
